- System: OVCAR-8 ovarian
- procedure summary: NCI tumour cell line growth inhibition, 48 h
readout name: GI50

>>> result("COc1ccc2c(CN3CCCC[C@H]3O)cc3cc4c(cc3c2c1)OCO4")
"0.268 µM"
>>> result("COc1ccc(-c2cn3ccnc3c(-c3ccc(Cl)cc3)n2)cc1")
"15 µM"
>>> result("COc1ccc(C(=O)Cn2c(C(=O)c3ccc(Cl)cc3)nc(-c3ccccc3)c2-c2ccccc2)cc1")
"> 100 µM"
>>> result("CSC(=S)NCc1cn(C)c2ccccc12")
"24.2 µM"
>>> result("CC(C)(O)c1cc(Nc2cc(Oc3cn(C4CC4)nc3C3CCOCC3)ccn2)ccn1")
"> 100 µM"

---

- Test system: CCRF-CEM leukemia
- procedure summary: NCI tumour cell line growth inhibition, 48 h
Parameter: TGI. Scope: all listed entries.
readout name: TGI

>>> result("COc1ccc(C2=NNC(c3sc(Cl)nc3Cl)C2)cc1 (stereo unspecified)")
"15.7 µM"
>>> result("CC12CC(c3ccccc3O1)C(C(=O)Nc1nccs1)C(=O)N2 (stereo unspecified)")
"> 100 µM"
>>> result("Nc1ccc(C(=O)N/C(=C\\c2ccc3c(c2)OCO3)c2nc3ccccc3s2)cc1")
"7.28 µM"
>>> result("CCSc1c2ccccc2nc2c(OC)ccc(OC)c12")
"> 100 µM"
>>> result("Cn1cnnc1Sc1c([N+](=O)[O-])nc(-c2ccc([N+](=O)[O-])cc2)n1C")
"33.7 µM"
>>> result("CCN(CC)c1ccc(/C=N/N=C(N)N)cc1")
"67.7 µM"

---

Below, each of the compounds is paired with its reported TGI value.
- Tested on: LOX IMVI melanoma
- procedure summary: NCI tumour cell line growth inhibition, 48 h
readout name: TGI (µM)

>>> quantitative_readout("C[C@@H]1C[C@@H]2OC(=O)[C@]3(C)[C@H]2[C@@H](OC3(C)O)[C@]2(C)C(=O)C=C[C@@H]12 (stereo not given in full)")
43
>>> quantitative_readout("Cc1nc(C(=O)OCc2ccccc2)cc(OCc2ccccc2)c1C")
36
>>> quantitative_readout("Clc1cc(Cl)nc(Nc2ccc3c(c2)CCC3)n1")
91.1
>>> quantitative_readout("CCN(CC)c1ccc(/C=N/N=C(N)N)cc1")
19.9

---

- Test system: MCF7 breast
- procedure summary: NCI tumour cell line growth inhibition, 48 h
# TGI values compiled below
readout name: TGI

>>> result("Nc1ccnc2c1ncn2[C@H]1C[C@H](O)[C@@H](CO)O1")
"> 100 µM"
>>> result("O=Cc1c2c(cc3c1CC1(C3)Cc3cc4c(c(C=O)c3C1)CCC4)CCC2")
"> 100 µM"
>>> result("CC(=O)/C(=N\\N=C(N)N)c1ccccc1")
"> 100 µM"
>>> result("COC(=O)c1c(C(=O)O)c(-c2ccccc2)c(-c2ccccc2)c(-c2ccccc2)c1-c1ccccc1")
"> 100 µM"
>>> result("CN(C)Cc1cc(/C=C/C(=O)c2ccc(Br)cc2)cc(CN(C)C)c1O")
"50.5 µM"

---

- Tested on: SNB-75 CNS
- procedure summary: NCI tumour cell line growth inhibition, 48 h
readout name: TGI

>>> result("C=C1C(=O)O[C@@H]2C[C@@H](C)[C@@H]3C=CC(=O)[C@@]3(C)[C@@H](OC(=O)CCCC(=O)O[C@H]3[C@@H]4C(=C)C(=O)O[C@@H]4C[C@@H](C)[C@@H]4C=CC(=O)[C@]43C)[C@H]12")
"0.482 µM"
>>> result("COc1ccc(N=C(C)C(C)=Nc2ccc(OC)cc2)cc1")
"> 100 µM"
>>> result("CC(=O)c1c(-c2ccco2)c(C#N)c(=S)n(C2OC(CO)C(O)C(O)C2O)c1C (centres undefined)")
"> 100 µM"
>>> result("CCCCC[C@H]1C/C=C2/C(=O)C=C[C@@H]2C/C=C\\CCCC(=O)O1")
"1.98 µM"
>>> result("Oc1c(NCn2nc(CCCCCCCCc3nn(CNc4ccc5ccccc5c4O)c(=S)o3)oc2=S)ccc2ccccc12")
"> 100 µM"
>>> result("COc1cccc(C=NC23CC4CC(CC(C4)C2)C3)c1")
"> 100 µM"
>>> result("O=C(CC1(O)CCCCC1)OC1CCCC1")
"> 100 µM"
>>> result("C[C@@H]1CC2(C[C@@H](C)C3[C@@H](CC4(C)CCCC5C6=CC(O)(CC[C@]34C)OC6=CC(=O)OC5(C)C)O2)OC1=O (some centres undefined)")
"> 100 µM"
>>> result("O=c1[nH]c(=S)[nH]c2c1CCCN2")
"> 100 µM"

Values compiled from PubChem BioAssay (NCI).
